# test method notes: Dog PK study: zoledronic acid in serum after IV or oral capsule dosing, enteric or non-enteric coated, with or without excess coformer (LC/MS/MS)
# Type: in vivo, Beagle dogs
# test context: beagle, iv, 0.12 mg/kg, Leg 38, 0.12 mg/kg IV, saline solution, 5 min, read-out: Average serum concentration of 4 dogs
measurement type: concentration at 5 min (ng/mL)
Please state the figure in ng/mL; there is no need to write the unit.

Identify concentration at 5 min associated with the molecule O=P(O)(O)C(O)(Cn1ccnc1)P(=O)(O)O [Zoledronic acid]
288

* * *

# test method notes: Dog PK study: zoledronic acid in serum after IV or oral capsule dosing, enteric or non-enteric coated, with or without excess coformer (LC/MS/MS)
# Assay type: in vivo, Beagle dogs
# test context: beagle, iv, 0.183 mg/kg, Leg 13, 0.183 mg/kg IV, saline solution, 10 min, read-out: Average serum concentration of 5 dogs
measurement type: concentration at 10 min (ng/mL)
Please state the figure in ng/mL; there is no need to write the unit.

Identify concentration at 10 min associated with the compound `O=P(O)(O)C(O)(Cn1ccnc1)P(=O)(O)O`
756
